# Tested on: PANC1 cells
# assay_notes: MTT-based viability assay
# Type: cell-based, human
# condition_parameters: Homo sapiens, PANC-1, chemotherapeutic agent alone
pIC50: −log10 of the molar value.
assay_readout: pIC50

I: O=c1[nH]cc(F)c(=O)[nH]1
II: Nc1ccn([C@@H]2O[C@H](CO)[C@@H](O)C2(F)F)c(=O)n1
Hi team, can someone confirm which has the larger pIC50: I or II ? Thanks. Which one? Tell me its label.
II
(II: 6.00, I: 5.48)
